Tested on: NCI-H292 lung cancer cells
EXPERIMENT SUMMARY: FDA drug screening, complete media vs cholesterol-free media with simvastatin (TABLE 2)
Format: cell-based, human
CONDITION NOTES: NCI-H292 cells, FDA library drug in complete media
Counter-ions that a name gives are not always drawn.
The threshold is inclusive: Complete Media of exactly 1 counts as Satisfied; values below receive Not satisfied.

COMPOUND	LABEL
C[C@]12CC[C@H](O)CC1=CC[C@@H]1[C@@H]2CC[C@]2(C)C(c3cccnc3)=CC[C@@H]12 [Abiraterone]	Satisfied

*Q* Is the recorded value of Complete Media equal to or greater than 1 for this compound? NC(=O)CN1CC(O)CC1=O (stereo not shown) [Oxiracetam]
*A* Not satisfied

*Q* Is the recorded value of Complete Media equal to or greater than 1 for this compound? C[C@H](N[C@@H](CCc1ccccc1)C(=O)O)C(=O)N1CCC[C@H]1C(=O)O.O.O [Enalaprilat (dihydrate)]
*A* Satisfied

*Q* Is the recorded value of Complete Media equal to or greater than 1 for this compound? NC(=O)NO [Hydroxyurea]
*A* Satisfied

*Q* Is the recorded value of Complete Media equal to or greater than 1 for this compound? O=C(COc1ccc(Cl)cc1)N1CCN(Cc2ccc3c(c2)OCO3)CC1 [Fipexide]
*A* Satisfied

*Q* Is the recorded value of Complete Media equal to or greater than 1 for this compound? CCc1ccc(CCOc2ccc(CC3SC(=O)NC3=O)cc2)nc1 (stereo not shown) [Pioglitazone]
*A* Satisfied

*Q* Is the recorded value of Complete Media equal to or greater than 1 for this compound? CCCCN(CCCC)CCC(O)c1cc2c(Cl)cc(Cl)cc2c2cc(C(F)(F)F)ccc12 (stereo not shown) [Halofantrine hydrochloride]
*A* Not satisfied

*Q* Is the recorded value of Complete Media equal to or greater than 1 for this compound? CO[C@@]1(NC(=O)C(C(=O)O)c2ccc(O)cc2)C(=O)N2C(C(=O)O)=C(CSc3nnnn3C)CO[C@@H]21 (stereo partly shown) [Moxalactam (sodium salt)]
*A* Satisfied

*Q* Is the recorded value of Complete Media equal to or greater than 1 for this compound? CCN(CC)Cc1cc(Nc2ccnc3cc(Cl)ccc23)ccc1O [Amodiaquine (dihydrochloride)]
*A* Satisfied

*Q* Is the recorded value of Complete Media equal to or greater than 1 for this compound? CC[C@H](Nc1ncnc2[nH]cnc12)c1nc2cccc(F)c2c(=O)n1-c1ccccc1 [Idelalisib]
*A* Satisfied

###

System: NCI-H292 lung cancer cells
EXPERIMENT SUMMARY: FDA drug screening, complete media vs cholesterol-free media without statin (TABLE 1)
Type: cell-based, human
CONDITION NOTES: NCI-H292 cells, cholesterol-free media without statin, FDA drug library screen
Structures can show the parent of a compound that is named as a salt.
Entries and their measured Cholesterol-free follow.
Reply briefly: the number, and no unit.

Some solved entries appear below for comparison.
In [3]: df
Out[3]:
                                   compound  measured_result
0  CC(C)C[C@H](NC(=O)[C@H](Cc1ccccc1)NC(=O)c1cnccn1)B(O)O         0.006863
1  N#Cc1ccc2[nH]cc(CCCCN3CCN(c4ccc5oc(C(N)=O)cc5c4)CC3)c2c1           0.8843

*Q* I have this compound here, `Cc1cc(C(=O)NNCc2ccccc2)no1` , and I need its recorded Cholesterol-free.
*A* 0.685

*Q* I have this compound here, CN1CCN(CC(=O)N2c3ccccc3C(=O)Nc3cccnc32)CC1 [Pirenzepine (dihydrochloride)] , and I need its recorded Cholesterol-free.
*A* 1.465

###

System: NCI-H292 lung cancer cells
EXPERIMENT SUMMARY: FDA drug screening, complete media vs cholesterol-free media without statin (TABLE 1)
Type: cell-based, human
CONDITION NOTES: NCI-H292 cells, complete media
Counter-ions that a name gives are not always drawn.
Entries and their measured Complete follow.
Reply briefly: the number, and no unit.

Some solved entries appear below for comparison.
COMPOUND	MEASUREMENT LABEL	MEASURED RESULT
CCCCN1CCCC[C@H]1C(=O)Nc1c(C)cccc1C [Levobupivacaine (hydrochloride)]	Complete	0.9683
C(=C\c1ccccc1)/CN1CCN(C(c2ccccc2)c2ccccc2)CC1	Complete	0.9213
COc1ccccc1OCC(O)COC(N)=O (centres unmarked)	Complete	1.063
CC(C)C(=O)OCC(=O)[C@@]12O[C@H](C3CCCCC3)O[C@@H]1C[C@H]1[C@@H]3CCC4=CC(=O)C=C[C@]4(C)[C@H]3[C@@H](O)C[C@@]12C [Ciclesonide]	Complete	0.4234
N[C@@H](Cc1cc(I)c(Oc2ccc(O)c(I)c2)c(I)c1)C(=O)O [Liothyronine (sodium)]	Complete	0.9078

*Q* Write down the reported Complete of O=C1c2cccc3c2[C@H](CCC3)CN1[C@@H]1CN2CCC1CC2 [Palonosetron (Hydrochloride)] , test system: NCI-H292 lung cancer cells.
*A* 0.7009

*Q* Write down the reported Complete of `Cn1c(=O)c2[nH]cnc2n(C)c1=O` , test system: NCI-H292 lung cancer cells.
*A* 1.176

*Q* Write down the reported Complete of `CC(O)(P(=O)(O)O)P(=O)(O)O` , test system: NCI-H292 lung cancer cells.
*A* 0.8527

*Q* Write down the reported Complete of `C=C1CCN([C@H](C)[C@](O)(Cn2cncn2)c2ccc(F)cc2F)CC1` , test system: NCI-H292 lung cancer cells.
*A* 0.8534

###

Test system: NCI-H292 lung cancer cells
EXPERIMENT SUMMARY: FDA drug screening, complete media vs cholesterol-free media without statin (TABLE 1)
Type: cell-based, human
CONDITION NOTES: Complete minus Cholesterol-free; >0 enhanced anti-cancer activity, about 0 neutral, <0 antagonist
The threshold is inclusive: Difference of exactly -0.06 counts as yes (1); values below receive no (0).

*Q* Is the recorded value of Difference equal to or greater than -0.06 for this compound? `O=C(O)/C=C/c1ccc(O)c(O)c1`
*A* yes (1)

###

Tested on: NCI-H292 lung cancer cells
EXPERIMENT SUMMARY: FDA drug screening, complete media vs cholesterol-free media with simvastatin (TABLE 2)
Assay type: cell-based, human
CONDITION NOTES: NCI-H292 cells, cholesterol-free media with simvastatin 0.04 μM; cell growth value in FDA drug screen
Where a name gives a salt, the structure may show the parent alone.
Entries and their measured Cholesterol-free media + simvastatin (0.04 μM) follow.
Reply briefly: the number, and no unit.

Some solved entries appear below for comparison.
                                   compound          measurement_target  measured_result
0  Cc1cccc(C(C)c2cnc[nH]2)c1C (stereo not shown) [Medetomidine (hydrochloride)]  NCI-H292 lung cancer cells           0.8752
1            CC(C)C(=O)c1c(C(C)C)nn2ccccc12  NCI-H292 lung cancer cells            1.245
2  CCOC(=O)c1c(N)sc2c1CCN(Cc1ccccc1)C2 [Tinoridine hydrochloride]  NCI-H292 lung cancer cells            1.034

Now look at this entry.
*Q* I have this compound here, `Nc1cc(F)ccc1NC(=O)c1ccc(CNC(=O)/C=C/c2cccnc2)cc1` , and I need its recorded Cholesterol-free media + simvastatin (0.04 μM).
*A* 0.5739

###

Test system: NCI-H292 lung cancer cells
EXPERIMENT SUMMARY: FDA drug screening, complete media vs cholesterol-free media without statin (TABLE 1)
Assay type: cell-based, human
CONDITION NOTES: NCI-H292 cells, complete media
Where a name gives a salt, the structure may show the parent alone.
Entries and their measured Complete follow.
Reply briefly: the number, and no unit.

Some solved entries appear below for comparison.
COMPOUND	Complete
[H]/N=C(/N)NS(=O)(=O)c1ccc(N)cc1 [Sulfaguanidine]	0.939
CCOC(=O)[C@H](CCc1ccccc1)N[C@@H](C)C(=O)N1[C@H](C(=O)O)C[C@@H]2CCC[C@@H]21 [Ramipril]	0.8936
O=C(NCc1c(F)cc(F)cc1F)c1cn2c(c(O)c1=O)C(=O)N1[C@H]3CC[C@H](C3)O[C@@H]1C2 [Bictegravir]	0.7123

*Q* I have this compound here, Nc1ccc(S(N)(=O)=O)cc1 [Sulfanilamide] , and I need its recorded Complete.
*A* 1.005

*Q* I have this compound here, OC[C@@H](O)[C@@H](O[C@H]1O[C@H](CO)[C@@H](O)[C@H](O)[C@H]1O)[C@H](O)[C@@H](O)CO [Maltitol] , and I need its recorded Complete.
*A* 0.7088

*Q* I have this compound here, COc1cc2nc(N3CCN(C(=O)[C@H]4CCCO4)CC3)nc(N)c2cc1OC [(R)-Terazosin] , and I need its recorded Complete.
*A* 0.7551

*Q* I have this compound here, O=C(O)P(=O)(O)O [Foscarnet (sodium)] , and I need its recorded Complete.
*A* 0.9196

*Q* I have this compound here, N=C(N)/N=C(\N)N1CCOCC1 [Moroxydine (hydrochloride)] , and I need its recorded Complete.
*A* 0.8572

*Q* I have this compound here, Cc1cc2ncc(C(=O)NCC(C)(C)NCC(=O)N3CCC[C@H]3C#N)cn2n1 [Anagliptin] , and I need its recorded Complete.
*A* 1.003

*Q* I have this compound here, CCOC(=O)c1ccc(N)cc1 [Benzocaine] , and I need its recorded Complete.
*A* 0.6479

*Q* I have this compound here, Clc1ccc(C(OCCN2CCCCC2)c2ccccc2)cc1 (stereo not drawn) [Cloperastine (hydrochloride)] , and I need its recorded Complete.
*A* 0.8022

*Q* I have this compound here, CN(C)CCOC(c1ccccc1)c1ccccc1 [Diphenhydramine (hydrochloride)] , and I need its recorded Complete.
*A* 0.8936

*Q* I have this compound here, CCCCCCCC(=O)N[C@H](CN1CCCC1)[C@H](O)c1ccc2c(c1)OCCO2 [Eliglustat] , and I need its recorded Complete.
*A* 0.8552

*Q* I have this compound here, CCC(=O)O[C@]1(C(=O)CCl)[C@@H](C)C[C@H]2[C@@H]3CCC4=CC(=O)C=C[C@]4(C)[C@@]3(F)[C@@H](O)C[C@@]21C [Clobetasol propionate] , and I need its recorded Complete.
*A* 1.28

*Q* I have this compound here, CCCOc1ccc(S(=O)(=O)NCCC2CCCN2C)cc1-c1nc2c(CCC)nn(C)c2c(=O)[nH]1 (stereo not drawn) [Udenafil] , and I need its recorded Complete.
*A* 1.195

*Q* I have this compound here, CCCCOc1ccc(C(=O)CCN2CCCCC2)cc1 [Dyclonine (hydrochloride)] , and I need its recorded Complete.
*A* 0.7824

*Q* I have this compound here, CCN[C@@H]1C[C@H](N)[C@@H](O[C@H]2OC(CN)=CC[C@H]2N)[C@H](O)[C@H]1O[C@H]1OC[C@](C)(O)[C@H](NC)[C@H]1O.CCN[C@@H]1C[C@H](N)[C@@H](O[C@H]2OC(CN)=CC[C@H]2N)[C@H](O)[C@H]1O[C@H]1OC[C@](C)(O)[C@H](NC)[C@H]1O.O=S(=O)(O)O.O=S(=O)(O)O.O=S(=O)(O)O.O=S(=O)(O)O.O=S(=O)(O)O [Netilmicin (sulfate)] , and I need its recorded Complete.
*A* 1.428

*Q* I have this compound here, CCCC[C@H](C)C[C@H](O)/C=C/[C@H]1[C@H](O)CC(=O)[C@@H]1CCCC/C=C/C(=O)O [Limaprost] , and I need its recorded Complete.
*A* 0.949

*Q* I have this compound here, CC(C)[N+](C)(CCC(C(N)=O)(c1ccccc1)c1ccccc1)C(C)C.[I-] [Isopropamide (iodide)] , and I need its recorded Complete.
*A* 0.9185
